# Test system: NCI-H460 lung
# procedure-summary: NCI-60 one-dose screen, 48 h (100 = growth as untreated, 0 = no growth, -100 = all killed)
# condition-info: 10 µM unless noted
The panel holds about 83,000 compounds, 20% with a hit somewhere; the sample as a whole holds those more often.
Listed below: growth values for each entry.
Only the number, expressed in %, is required.

C#CCn1c2c(c3ccccc31)C[C@]1(C)[C@H]3CC[C@@H]4[C@@H]5C(=CCC[C@H]5C(=C)C)CC[C@@]4(C)[C@]3(C)CC[C@H]1C2(C)C = 99.8

// next entry
### Prompt Looking for the measured growth of COc1cc2ncnc(Nc3ccc(Oc4ccnc(C)c4)c(C)c3)c2cc1NC(=O)CC1CCSS1 (stereo not drawn) , can you help?
### Response -53.1

###

Below, each entry is listed with its recorded growth.
# Test system: OVCAR-8 ovarian
# procedure-summary: NCI-60 one-dose screen, 48 h (100 = growth as untreated, 0 = no growth, -100 = all killed)
# condition-info: 10 µM unless noted
About 83,000 compounds went through this panel and 20% of them were active in at least one assay; those are over-represented in the sample as a whole.
Value expressed in %; do not type the unit.

Example entries begin here.
Cc1cc2nc3c4cc([N+](=O)[O-])cc([N+](=O)[O-])c4n(CCN(C)C)c3nc2cc1C = 61.4
Oc1ccc(Nc2ccccc2)cc1 = 96
Oc1cccc2oc(=S)[nH]c12 = 112
N#CC1=C(N)Oc2c(sc3c(F)cccc23)C1c1ccc(Cl)cc1 (stereo unspecified) = 42.8
COc1cc2nc(Cl)nc(Nc3cccc(C(=O)/C=C/c4ccccc4)c3)c2cc1OC = 49.6

### Prompt Consider the compound COc1cccc(-c2nn(-c3ccccc3)cc2-c2ccnc(NCCCNS(=O)(=O)c3ccc(Br)cc3)c2)c1 and give its measured growth.
### Response 47.9

###

# Tested on: MDA-MB-231 breast
# procedure-summary: NCI-60 one-dose screen, 48 h
# condition-info: 10 µM unless noted
# Method: Cells are grown in 96 well plates and exposed to the test compound for 48 hours. Compounds are tested at a single concentration, which is 10^-5 M for most compounds. The reported endpoint is percent growth (GI% or GIPRCNT), where numbers from 0 - 100% represent growth inhibition, and numbers from -100% - 0 represent cell death. For example, a value of 40 represents 60% growth inhibition. A value of 0 means no net growth occurred over the course of the experiment. […]
About 83,000 compounds went through this panel and 20% of them were active in at least one assay; those are over-represented in the sample as a whole. The source made the active and inactive calls. Rule for the calls: active = growth percent below 10; inactive = the rest.
Tick one outcome: active, inactive

### Prompt Could you please tell me the result logged for COc1cccc(-c2nn(-c3ccccc3)cc2-c2ccnc(NCCNS(=O)(=O)c3cccc(F)c3)c2)c1 in this assay?
### Response active

### Prompt Per the records of this test, what outcome belongs to Cc1cc(Cl)nc(N(CCCNc2ccnc3cc(Cl)ccc23)Cc2ccco2)n1 ?
### Response inactive

### Prompt Could you please tell me the result logged for CC/C(=N/NC(N)=O)c1ccccc1 in this assay?
### Response inactive

### Prompt Check the results log: what was the call for O=C1OC(c2ccc(Cl)c(Cl)c2)=C/C1=C/c1cccc([N+](=O)[O-])c1 ?
### Response inactive

### Prompt For N#Cc1c(-c2ccc(O)cc2)c2c(N)nn(-c3ccccc3)c2[nH]c1=O , which call appears in the assay record?
### Response inactive

### Prompt Recorded call for COc1ccc(C(=O)c2ccc(C)cc2)c(OC)c1OC ?
### Response inactive

### Prompt I would be grateful if you could indicate the recorded call for Cc1cc(N(CCCNc2ccnc3cc(Cl)ccc23)Cc2ccco2)nc(N2CCOCC2)n1 .
### Response inactive

### Prompt // param item: Nc1c(C(=O)Nc2c(Cl)cccc2Cl)sc2nc3c(cc12)C(=O)CCC3 ; yields the recorded call
### Response inactive
